Counter-ions that a name gives are not always drawn.
READOUT_NAME: melting point

Example molecules with recorded melting point:
CCCCCCCCCCCCCCCCCCOC(=O)O[PH](=O)OC[C@H]1O[C@@H](n2cc(C)c(=O)[nH]c2=O)C[C@@H]1N=[N+]=[N-] (some centres unmarked) [Example 20] = 224 °C (dec.)
CCCCCCCCCCCCCCCCCCCCCCOC(=O)O[PH](=O)OC[C@H]1O[C@@H](n2cc(C)c(=O)[nH]c2=O)C[C@@H]1N=[N+]=[N-] (some centres unmarked) [Example 22] = 238 °C (dec.)
CCCCCCCCCCCCCCCCCCCCOC(=O)P(=O)(O)OC (as salt: sodium) [Example 9] = 95 to 96 °C
CCCCCCCCCCCCCCCCCCOC(=O)P(=O)(O)OC (as salt: sodium) [Example 8] = 92 to 93 °C

# next molecule below
INPUT: State, in one line, measured melting point of CCCCCCCCCCCCCCCCCCCCOC(=O)O[PH](=O)OC[C@H]1O[C@@H](n2cc(C)c(=O)[nH]c2=O)C[C@@H]1N=[N+]=[N-] (some centres unmarked) [Example 21]
OUTPUT: 230 °C (dec.)
